Data credit: paper PMC9435431

Tested on: M. tuberculosis MmpL3 F255L mutant strain
Type: cell-based, Mycobacterium tuberculosis
QUANTITY KIND: Fold change
In your answer, state the number alone without any accompanying words.

Example cases with answers are listed next.
[[record]]
compound = "CC(C)(C)CC(C)(C)N1CCC(c2ccccc2)CC1"
quantity_kind = "Fold change"
reading = 3.5

[[record]]
compound = "Cc1nc(-c2ccccn2)nc(NCc2ccccc2)c1Cl"
quantity_kind = "Fold change"
reading = 3.5

[[record]]
compound = "CNc1cc(-c2ccccn2)nc(-c2ccccn2)n1"
quantity_kind = "Fold change"
reading = 0.9


Query block: What value of Fold change has been recorded for this entry: `O=C(O)C(F)(F)F.c1ccc2c(C3CCN(CC4CCCCC4)CC3)cccc2c1`
Result block: 15

Query block: Thanks! And CC1C(CNC(=O)Nc2ccccc2)CC2CC1C2(C)C (stereo not shown) ?
Result block: 8.0

Query block: Also, `Cc1cc(NC2CCCCC2)nc(-n2nc(C)cc2C)n1` please.
Result block: 10

Query block: Another: CC(=O)c1ccc(NC(=O)NC(C)C23CC4CC(CC(C4)C2)C3)cc1 (stereo not shown)
Result block: 2.4

Query block: Try this compound next: `CCC1(N2CCC(c3ccccc3)CC2)CCCCC1`
Result block: 11

----------
Test system: M. tuberculosis MmpL3 F255L mutant strain
Type: cell-based, Mycobacterium tuberculosis
Recorded measurements of Fold change, one per entry

Look over these answered cases.
[[record]]
molecule = "CC(NC(=O)Nc1nc(-c2ccc(Cl)cc2)cs1)C1CC2C=CC1C2 (stereo not shown)"
reading = 0.5

[[record]]
molecule = "Cc1nc(-c2ccccn2)nc(NCCNc2ccc(C(F)(F)F)cn2)c1Cl"
reading = 0.5

[[record]]
molecule = "O=C(Nc1nc2ccccc2s1)NC1C2CC3CC(C2)CC1C3 (stereo not shown)"
reading = 1.4


Next:
Query block: Item under review: `O=C(NCCc1ccc(Br)cc1)NC12CC3CC(CC(C3)C1)C2` . Reported Fold change?
Result block: > 8.3

----------
Tested on: M. tuberculosis MmpL3 Y252S mutant strain
Format: cell-based, Mycobacterium tuberculosis
QUANTITY KIND: MmpL3 Y252S MIC (µM)
Write the answer as a number in µM, unit excluded.

[[record]]
compound = "Cc1ccccc1C1(C(=O)NCCc2cccc(Br)c2)CCC1 [PCB-23]"
quantity_kind = "MmpL3 Y252S MIC"
units_text = "µM"
reading = 82

[[record]]
compound = "CCC1(N2CCC(c3ccccc3)CC2)CCCCC1 [Molecule 4PP-1]"
quantity_kind = "MmpL3 Y252S MIC"
units_text = "µM"
reading = 93

[[record]]
compound = "O=C(NCCc1cccc(Br)c1)C1(c2ccc(F)cc2)CCC1 [PCB-19]"
quantity_kind = "MmpL3 Y252S MIC"
units_text = "µM"
reading = 35

[[record]]
compound = "O=C(NCCc1cccc(Br)c1)C1(c2cccc(Cl)c2)CCC1 [PCB-16]"
quantity_kind = "MmpL3 Y252S MIC"
units_text = "µM"
reading = 50


Query block: Give M. tuberculosis MmpL3 Y252S mutant strain MmpL3 Y252S MIC for O=C(NCCc1cccc(Br)c1)C1(c2ccccc2Cl)CCC1 [PCB-17]
Result block: 87
